Reported Activity values follow for various compounds
- Tested on: MCF7
- EXPERIMENT_SUMMARY: Cytotoxicity against human MCF7 cells assessed as surviving fraction at 100 uM after 48 hrs by sulforhodamine B assay
- Format: functional

| COMPOUND | Activity |
| --- | --- |
| COc1ccc(C2C(C#N)=C(/N=C/c3ccc([N+](=O)[O-])cc3)Oc3nc(Nc4ccc(S(N)(=O)=O)cc4)sc32)cc1 (centres undefined) | 38.1% |
| COc1ccc(C2C(C#N)=C(/N=C/c3cccc(Br)c3)Oc3nc(Nc4ccc(S(N)(=O)=O)cc4)sc32)cc1 (centres undefined) | 30.9% |
| COc1ccc(C2C(C#N)=C(/N=C/c3ccc(O)cc3)Oc3nc(Nc4ccc(S(N)(=O)=O)cc4)sc32)cc1 (centres undefined) | 30.7% |
| COc1ccc(C2C(C#N)=C(/N=C/c3ccc(F)cc3)Oc3nc(Nc4ccc(S(N)(=O)=O)cc4)sc32)cc1 (centres undefined) | 44.3% |
